Measured values drawn from patent US8735406B2 for this set.

Each record here notes measured pIC50.
MEASURED_TARGET: FAAH (Rattus norvegicus)
Construct: Preparation of Rat Brain Membranes Preparations (FAAH Enzyme Solution); from tissue; host or cells: rat cerebrum (brain membrane preparation)
Sequence (P97612 whole entry): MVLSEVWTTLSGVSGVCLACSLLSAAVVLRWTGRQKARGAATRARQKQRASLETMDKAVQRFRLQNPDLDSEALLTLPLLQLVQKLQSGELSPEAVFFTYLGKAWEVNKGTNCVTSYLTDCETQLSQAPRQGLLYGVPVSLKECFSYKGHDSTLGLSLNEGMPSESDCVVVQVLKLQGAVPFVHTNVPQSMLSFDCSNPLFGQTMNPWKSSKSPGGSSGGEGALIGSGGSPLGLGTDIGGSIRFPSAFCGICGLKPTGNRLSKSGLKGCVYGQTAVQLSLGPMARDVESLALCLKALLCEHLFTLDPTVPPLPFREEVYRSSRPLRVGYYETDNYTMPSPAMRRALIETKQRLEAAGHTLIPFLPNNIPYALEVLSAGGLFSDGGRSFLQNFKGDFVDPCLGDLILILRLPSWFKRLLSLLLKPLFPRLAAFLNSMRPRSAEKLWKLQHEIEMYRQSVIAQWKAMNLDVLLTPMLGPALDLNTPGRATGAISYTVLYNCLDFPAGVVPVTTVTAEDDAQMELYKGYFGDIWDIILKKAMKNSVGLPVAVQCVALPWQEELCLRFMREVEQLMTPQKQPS
TEST_DETAILS: Determination of FAAH inhibitory activity in rat (rat brain membrane preparations, [3H]-anandamide hydrolysis)
Assay type: biochemical
CONDITIONS: rat brain membrane preparations; test substance 0.1 nM to 1 μM; read-out: FAAH Inhibition IC50
// returns pIC50 (minus log10 of molar concentration), number only

Cn1c(=O)n(C(=O)N2CCCC2)c2cnc(-c3cccc(OCc4ccccc4)c3)nc21; 7.02

Measured pIC50, "COc1cccc(-c2ncc3c(n2)n(C)c(=O)n3C(=O)N2CCC2)c1" : 8.30

Measured pIC50, "Cn1c(=O)n(C(=O)N2CCCC2)c2cnc(-c3ccc(OC(F)(F)F)cc3)nc21" : 7.24

Measured pIC50, "Cn1c(=O)n(C(=O)N2CCCC2)c2nc(Cc3ccc(F)cc3F)ncc21" : 7.35

Measured pIC50, "COc1cccc(-c2ncc3c(n2)n(C)c(=O)n3C(=O)N(C)Cc2cccc(Cl)c2)c1" : 7.29

Measured pIC50, "CN(C)C(=O)n1c(=O)n(C)c2cnc(COc3cccc(Cl)c3)nc21" : 7.19

Measured pIC50, "CSc1ccc(-c2ncc3c(n2)n(C)c(=O)n3C(=O)N2CCCC2)cc1" : 8.52

Measured pIC50, "COc1ccc(CCc2ncc3c(n2)n(C(=O)N(C)C)c(=O)n3C)cc1" : 7.96
